Every entry's value here was drawn from patent USRE47351E1.

Target: A2A receptor (Sus scrofa)
Sequence (K9IW67 1-409): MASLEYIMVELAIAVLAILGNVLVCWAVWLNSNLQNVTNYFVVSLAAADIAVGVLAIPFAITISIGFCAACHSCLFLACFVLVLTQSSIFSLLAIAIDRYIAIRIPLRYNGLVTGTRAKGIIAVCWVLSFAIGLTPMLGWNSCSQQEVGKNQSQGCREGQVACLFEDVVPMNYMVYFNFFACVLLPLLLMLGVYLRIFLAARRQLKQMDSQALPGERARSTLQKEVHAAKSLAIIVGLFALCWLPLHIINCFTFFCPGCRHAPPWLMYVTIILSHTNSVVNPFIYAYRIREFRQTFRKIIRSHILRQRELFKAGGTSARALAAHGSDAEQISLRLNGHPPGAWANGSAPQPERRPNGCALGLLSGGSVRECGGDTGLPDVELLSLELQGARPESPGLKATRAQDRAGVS
Test: A2A receptor affinity in pig striatum membrane prep (tritiated ZM 241385 displacement)
Assay type: binding
Details: read-out: A2a Ki; pig striatal membranes, displacement of tritiated ZM 241385 (2 nM), 23° C. 2 h
pKi: −log10 of the molar value.

{"columns": ["Molecule", "pKi"],
 "data": [
  ["CNC(=O)c1cnn(-c2nc(N)c3ncn(C4O[C@H](CO)[C@@H](O)[C@H]4O)c3n2)c1 (stereo partly shown)", "5.00 to 6.00"]
]}

---

Target: UniProtKB P46616
Sequence (P46616 whole entry): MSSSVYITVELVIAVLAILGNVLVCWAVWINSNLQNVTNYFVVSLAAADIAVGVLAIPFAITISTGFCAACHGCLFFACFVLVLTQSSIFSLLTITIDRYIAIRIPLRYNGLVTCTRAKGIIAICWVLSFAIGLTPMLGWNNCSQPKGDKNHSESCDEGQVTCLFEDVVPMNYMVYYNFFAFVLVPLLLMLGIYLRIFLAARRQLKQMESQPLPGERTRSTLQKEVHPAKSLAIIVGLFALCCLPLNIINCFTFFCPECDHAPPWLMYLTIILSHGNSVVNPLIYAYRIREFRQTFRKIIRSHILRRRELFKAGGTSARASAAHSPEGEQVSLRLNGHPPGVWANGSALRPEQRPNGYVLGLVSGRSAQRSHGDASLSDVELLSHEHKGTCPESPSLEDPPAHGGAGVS

{"columns": ["Compound", "EC50 [nM]"],
 "data": [
  ["CNC(=O)c1cnn(-c2nc(N)c3ncn(C4O[C@H](CO)[C@@H](O)[C@H]4O)c3n2)c1 (stereo partly shown)", 18.6]
]}
